# log k in 80% CH3CN, C3Ph per entry
Assay: Reversed-phase liquid chromatography retention factor (log k) on propyl-phenyl bonded phase
Type: physicochemical
Conditions: aqueous 80% acetonitrile at 40° C.; C3Ph column

* CCc1ccccc1 [Ethylbenzene] | 0.121
* CCCCCCc1ccccc1 [Hexylbenzene] | 0.430
* CCCCCCCc1ccccc1 [Heptylbenzene] | 0.512
* CCCc1ccccc1 [Propylbenzene] | 0.196
* CCCCc1ccccc1 [Butylbenzene] | 0.274
* CCCCCCCCCCc1ccccc1 [Decylbenzene] | 0.748

Entry CCCCCCCCc1ccccc1 [Octylbenzene] has what log k in 80% CH3CN, C3Ph? 0.589

Entry CCCCCCCCCc1ccccc1 [Nonylbenzene] has what log k in 80% CH3CN, C3Ph? 0.668

Entry CCCCCc1ccccc1 [Pentylbenzene] has what log k in 80% CH3CN, C3Ph? 0.350

###

Assay: Reversed-phase liquid chromatography retention factor (log k) on hexyl-phenyl bonded phase
Type: physicochemical
Settings: 70% CH3CN; C6Ph column
Cut-off 0.7 on log k in 70% CH3CN, C6Ph: below means label 1, at or above means label 0.

Is log k in 70% CH3CN, C6Ph of CCCCc1ccccc1 [Butylbenzene] strictly below 0.7? label 1

###

Experiment: Reversed-phase liquid chromatography retention factor (log k) on pentyl bonded phase
Assay type: physicochemical
Conditions: 70% CH3CN; C5 column
readout_kind: log k in 70% CH3CN, C5
Note: the reply should be a number with no unit written.

Previously resolved entries follow.
- c1ccc2c(c1)-c1cccc3cccc-2c13 [Fluoranthene]: 0.599
- CCCCCCc1ccccc1 [Hexylbenzene]: 0.894
- CCCCCCCCc1ccccc1 [Octylbenzene]: 1.144
- c1ccc2c(c1)-c1cccc3c1c-2cc1ccccc13 [Benzo(b)fluoranthene]: 0.741
- CCCCCCCc1ccccc1 [Heptylbenzene]: 1.019
- c1ccc2c(c1)-c1ccc3ccc4cccc5cc-2c1c3c45 [Indeno(1,2,3 cd)pyrene]: 0.822
- c1ccc2c(c1)ccc1ccccc12 [Phenanthrene]: 0.538
- CCCCCCCCCc1ccccc1 [Nonylbenzene]: 1.271
- c1ccc2cc3c(cc2c1)-c1cccc2cccc-3c12 [Benzo(k)fluoranthene]: 0.741
- c1cc2ccc3ccc4ccc5cccc6c(c1)c2c3c4c56 [Benzo(g,h,i)perylene]: 0.822

Entry CCCCCCCCCCc1ccccc1 [Decylbenzene] has what log k in 70% CH3CN, C5? 1.400

Entry CCCCCc1ccccc1 [Pentylbenzene] has what log k in 70% CH3CN, C5? 0.772

Entry c1ccc2c(c1)Cc1ccccc1-2 [Fluorene] has what log k in 70% CH3CN, C5? 0.527

Entry c1ccc2c(c1)ccc1c3ccccc3ccc21 [Chrysene] has what log k in 70% CH3CN, C5? 0.673

Entry CCCc1ccccc1 [Propylbenzene] has what log k in 70% CH3CN, C5? 0.537

Entry CCc1ccccc1 [Ethylbenzene] has what log k in 70% CH3CN, C5? 0.417

Entry C1=Cc2cccc3cccc1c23 [Acenaphthylene] has what log k in 70% CH3CN, C5? 0.450

Entry c1ccc2c(c1)cc1ccc3cccc4ccc2c1c34 [Benzo(a)pyrene] has what log k in 70% CH3CN, C5? 0.755

###

# log k in 80% CH3CN, C6Ph per entry
Experiment: Reversed-phase liquid chromatography retention factor (log k) on hexyl-phenyl bonded phase
Type: physicochemical
Settings: aqueous 80% acetonitrile at 40° C.; C6Ph column
Note: the reply should be a number with no unit written.

Entry CCCCCCCCc1ccccc1 has what log k in 80% CH3CN, C6Ph? 0.757

###

Assay: Reversed-phase liquid chromatography retention factor (log k) on octadecyl bonded phase
Assay type: physicochemical
Conditions: 70% CH3CN; C18 column
Text: The inertness and the chemical stability of the synthesized hexyl-phenyl bonded silica gel were studied by looking at the retention factors and peak shapes of pyridine, benzoic acid, 8-hydroxyquinoline, and naphthalene disclosed in T. Hanai, Encyclopedia of Analytical Science (1995), Academic Press, London, p. […] The retention factor, in terms of measured parameters, is “k=(tR−tO)/tO”: where tR is retention time of the measured peak; and to is retention time of non-retained component. […]
# log k in 70% CH3CN, C18 per entry
Note: the reply should be a number with no unit written.

Previously resolved entries follow.
* c1ccc2c(c1)-c1cccc3cccc-2c13 | 0.989
* CCc1ccccc1 | 0.628
* c1cc2ccc3cccc4ccc(c1)c2c34 | 1.038
* c1ccc2cc3c(ccc4ccccc43)cc2c1 | 1.177
* CCCCCCCCc1ccccc1 | 1.673
* C1=Cc2cccc3cccc1c23 | 0.663

Entry CCCCc1ccccc1 has what log k in 70% CH3CN, C18? 0.963

Entry CCCCCc1ccccc1 has what log k in 70% CH3CN, C18? 1.134

Entry CCCc1ccccc1 has what log k in 70% CH3CN, C18? 0.800

###

# log k in 70% CH3CN, C3Ph per entry
Assay: Reversed-phase liquid chromatography retention factor (log k) on propyl-phenyl bonded phase
Assay type: physicochemical
Conditions: 70% CH3CN; C3Ph column

Previously resolved entries follow.
• CCCCCc1ccccc1 [Pentylbenzene] = 0.646
• c1ccc2cc3c(cc2c1)-c1cccc2cccc-3c12 [Benzo(k)fluoranthene] = 0.726
• c1ccc2c(c1)Cc1ccccc1-2 [Fluorene] = 0.436
• c1ccc2ccccc2c1 [Naphthalene] = 0.305
• CCc1ccccc1 [Ethylbenzene] = 0.348

Entry c1ccc2c(c1)-c1cccc3c1c-2cc1ccccc13 [Benzo(b)fluoranthene] has what log k in 70% CH3CN, C3Ph? 0.714

Entry c1ccc2c(c1)-c1ccc3ccc4cccc5cc-2c1c3c45 [Indeno(1,2,3 cd)pyrene] has what log k in 70% CH3CN, C3Ph? 0.803

Entry c1ccc2c(c1)ccc1cc3c(ccc4ccccc43)cc12 [Dibenzo(a,h)anthracene] has what log k in 70% CH3CN, C3Ph? 0.806

Entry c1ccc2c(c1)ccc1ccccc12 [Phenanthrene] has what log k in 70% CH3CN, C3Ph? 0.468

###

Assay: Reversed-phase liquid chromatography retention factor (log k) on hexyl-phenyl bonded phase
Type: physicochemical
Details: 70% CH3CN; C6Ph column
Cut-off 0.7 on log k in 70% CH3CN, C6Ph: below means 1.0, at or above means 0.0.

• c1ccc2c(c1)-c1cccc3cccc-2c13 = 0.0

Is log k in 70% CH3CN, C6Ph of CCCCCCCCCCc1ccccc1 strictly below 0.7? 0.0

Is log k in 70% CH3CN, C6Ph of CCCCCCCc1ccccc1 strictly below 0.7? 0.0

Is log k in 70% CH3CN, C6Ph of c1ccc2c(c1)cc1ccc3cccc4ccc2c1c34 strictly below 0.7? 0.0

Is log k in 70% CH3CN, C6Ph of c1ccc2c(c1)ccc1ccccc12 strictly below 0.7? 1.0

###

# log k in 80% CH3CN, C6Ph per entry
Assay: Reversed-phase liquid chromatography retention factor (log k) on hexyl-phenyl bonded phase
Format: physicochemical
Conditions: aqueous 80% acetonitrile at 40° C.; C6Ph column

Previously resolved entries follow.
* CCCc1ccccc1 | 0.303
* CCCCCCCc1ccccc1 | 0.667

Entry CCCCCCCCCc1ccccc1 has what log k in 80% CH3CN, C6Ph? 0.849

###

Test: Reversed-phase liquid chromatography retention factor (log k) on propyl-phenyl bonded phase
Assay type: physicochemical
Conditions: 70% CH3CN; C3Ph column
Everything with log k in 70% CH3CN, C3Ph lower than 0.5 is Not satisfied; everything else, including exactly 0.5, is Satisfied.

Example entries begin here.
• C1=Cc2cccc3cccc1c23 = Not satisfied
• CCCCc1ccccc1 = Satisfied

Quick check: does c1ccc2c(c1)-c1cccc3cccc-2c13 have log k in 70% CH3CN, C3Ph greater than or equal to 0.5? Satisfied

Quick check: does CCCCCCc1ccccc1 have log k in 70% CH3CN, C3Ph greater than or equal to 0.5? Satisfied

Quick check: does CCCc1ccccc1 have log k in 70% CH3CN, C3Ph greater than or equal to 0.5? Not satisfied

Quick check: does c1ccc2c(c1)cc1ccc3cccc4ccc2c1c34 have log k in 70% CH3CN, C3Ph greater than or equal to 0.5? Satisfied

Quick check: does c1ccc2c(c1)ccc1c3ccccc3ccc21 have log k in 70% CH3CN, C3Ph greater than or equal to 0.5? Satisfied
